Biological target: T1, DLG3_2, Q92796
T1 sequence (Q92796 221-321, limits assumed, looked up): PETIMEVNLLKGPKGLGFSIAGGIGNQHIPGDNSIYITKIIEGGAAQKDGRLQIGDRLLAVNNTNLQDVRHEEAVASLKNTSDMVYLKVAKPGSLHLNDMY
Test: holdup assay
Set-up: key: below the threshold = too weak to quantify, mostly under pKd 3.1 to 4
Details: plain residues with an end cap or a label only (N-terminal biotin on a linker: ado-ado)
Quantity kind: pKd
Keep it simple and answer with nothing but the number.

Item: MQILSKPEFI [NPSR1, Q6W5P4] | pKd: 4.18

Item: KSRPENGTVC [TMEM178B, H3BS89] | pKd: 3.54
